Sourced from patent US20240287079A1

TEST_SYSTEM: NLRP3 inflammasome (Homo sapiens (Human), UniProt Q96P20)
Sequence (Q96P20 whole entry): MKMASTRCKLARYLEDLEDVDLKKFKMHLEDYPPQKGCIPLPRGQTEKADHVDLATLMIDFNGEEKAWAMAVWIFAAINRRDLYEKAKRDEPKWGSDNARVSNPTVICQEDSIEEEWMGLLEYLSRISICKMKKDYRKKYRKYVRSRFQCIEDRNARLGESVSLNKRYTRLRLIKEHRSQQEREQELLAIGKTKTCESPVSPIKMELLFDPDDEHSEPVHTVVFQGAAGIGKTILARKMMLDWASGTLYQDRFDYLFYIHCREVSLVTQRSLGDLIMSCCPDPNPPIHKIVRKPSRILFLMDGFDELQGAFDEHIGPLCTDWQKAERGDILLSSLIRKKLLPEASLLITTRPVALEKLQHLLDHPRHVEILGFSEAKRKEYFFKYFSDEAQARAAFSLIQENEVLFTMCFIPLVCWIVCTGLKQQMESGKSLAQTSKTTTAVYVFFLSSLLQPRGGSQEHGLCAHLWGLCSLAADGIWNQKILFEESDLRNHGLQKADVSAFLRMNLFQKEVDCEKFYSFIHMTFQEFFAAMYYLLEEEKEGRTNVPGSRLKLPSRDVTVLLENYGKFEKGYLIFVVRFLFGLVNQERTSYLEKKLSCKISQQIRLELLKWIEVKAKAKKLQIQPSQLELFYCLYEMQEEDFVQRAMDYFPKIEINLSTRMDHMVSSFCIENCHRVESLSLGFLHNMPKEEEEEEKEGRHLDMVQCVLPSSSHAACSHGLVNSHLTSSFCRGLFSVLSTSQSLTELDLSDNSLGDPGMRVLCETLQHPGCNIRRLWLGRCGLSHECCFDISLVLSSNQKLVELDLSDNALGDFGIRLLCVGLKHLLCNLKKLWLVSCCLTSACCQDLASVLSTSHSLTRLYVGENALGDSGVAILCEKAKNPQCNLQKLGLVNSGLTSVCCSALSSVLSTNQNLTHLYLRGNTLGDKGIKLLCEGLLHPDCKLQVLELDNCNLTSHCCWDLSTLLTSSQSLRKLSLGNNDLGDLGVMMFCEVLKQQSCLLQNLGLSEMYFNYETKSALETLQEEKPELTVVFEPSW
EXPERIMENTAL_DETAILS: Evaluation of NLRP3 inflammasome inhibitory activity (inhibition of IL-1β production in LPS/Nigericin-stimulated THP1-Null cells)
CONDITION_NOTES: IL-1β production in THP1-Null cells, PMA, LPS 1 μg/mL, Nigericin 7.5 μmol/L, AlphaLISA
Categorized via IC50: bottom range: < 20 nM; center range: ≥ 20 nM and < 200 nM; top range: ≥ 200 nM

Check out these entries, answers already filled in.
COMPOUND: O=c1[nH]c(N2CCCC2)nc2nn(-c3ccc(C(F)(F)F)cc3Cl)cc12
CLASS_ASSIGNMENT: bottom range
//
COMPOUND: COCC(=O)N1CC2CC1CN2c1nc2nn(-c3c(C)cc(C4CC4)cc3C)cc2c(=O)[nH]1 (racemic)
CLASS_ASSIGNMENT: center range
//
COMPOUND: CCCCNc1nc2nn(-c3ccccc3C)cc2c(=O)[nH]1
CLASS_ASSIGNMENT: top range

Would you kindly look at the next entry?
Classify this compound: Cc1cc(C)c(-n2cc3c(=O)[nH]c(N4CCC(S(C)(=O)=O)C4)nc3n2)c(C)c1 (racemic)
center range

----------
TEST_SYSTEM: NLRP3 inflammasome (Homo sapiens (Human), UniProt Q96P20)
EXPERIMENTAL_DETAILS: Evaluation of NLRP3 inflammasome inhibitory activity (inhibition of IL-1β production in LPS/Nigericin-stimulated THP1-Null cells)
CONDITION_NOTES: IL-1β production in THP1-Null cells, PMA, LPS 1 μg/mL, Nigericin 7.5 μmol/L, AlphaLISA
pIC50: −log10 of the molar value.
I would appreciate it if you labelled entries Yes when pIC50 is 8 or higher, otherwise No.

Before answering, review these 4 worked examples.
COMPOUND: Cc1cc(C2CC2)cc(C)c1-n1cc2c(=O)[nH]c(N3CCC3)nc2n1 [Example 328]
CLASS_ASSIGNMENT: Yes
--
COMPOUND: O=c1[nH]c(N2CCCC2)nc2nn(-c3ccccc3)cc12 [Example 2]
CLASS_ASSIGNMENT: No
--
COMPOUND: CC(C)(C)OC(=O)N1CCCN(c2nc3nn(-c4ccc(C(F)(F)F)cc4Cl)cc3c(=O)[nH]2)CC1 [Example 132]
CLASS_ASSIGNMENT: No
--
COMPOUND: O=c1[nH]c(N2CC(O)C2)nc2nn(-c3ccc(C(F)(F)F)cc3Cl)cc12 [Example 182]
CLASS_ASSIGNMENT: No

Here's the next entry for you.
Identify whether the reported pIC50 of the following compound is 8 or greater: COC1CN(c2nc3nn(-c4ccccc4C)cc3c(=O)[nH]2)C1 [Example 33]
No

----------
TEST_SYSTEM: NLRP3 inflammasome (Homo sapiens (Human), UniProt Q96P20)
EXPERIMENTAL_DETAILS: Evaluation of NLRP3 inflammasome inhibitory activity (inhibition of IL-1β production in LPS/Nigericin-stimulated THP1-Null cells)
CONDITION_NOTES: IL-1β production in THP1-Null cells, PMA, LPS 1 μg/mL, Nigericin 7.5 μmol/L, AlphaLISA
Recorded IC50 split into classes LOW: < 30 nM; MID: ≥ 30 nM and < 800 nM; HIGH: ≥ 800 nM

MOLECULE: Cc1cc(Br)ccc1-n1cc2c(=O)[nH]c(N3CCS(=O)(=O)CC3)nc2n1
CLASS_ASSIGNMENT: LOW

Query molecule follows.
Into which bin does this molecule go? O=c1[nH]c(N2CCOCC2)nc2nn(-c3ccc(C(F)(F)F)cc3Cl)cc12
LOW

----------
Field: IC50. Provide a value for each of the compounds that follow.
TEST_SYSTEM: NLRP3 inflammasome (Homo sapiens (Human))
EXPERIMENTAL_DETAILS: Evaluation of NLRP3 inflammasome inhibitory activity (inhibition of IL-1β production in LPS/Nigericin-stimulated THP1-Null cells)
CONDITION_NOTES: IL-1β production in THP1-Null cells, PMA, LPS 1 μg/mL, Nigericin 7.5 μmol/L, AlphaLISA
One number for each entry, in µM.

COMPOUND: Cc1ccccc1-n1cc2c(=O)[nH]c(N(C)C(C)C)nc2n1 [Example 23]
VALUE_MEASURED: 1.9

Need IC50 for each of these compounds.
1. Cc1cc(OC(F)F)cc(C)c1-n1cc2c(=O)[nH]c(N3CCOCC3)nc2n1 [Example 298]
2. O=c1[nH]c(N2CCOCC2)nc2nn(-c3c(F)cc(Br)cc3C(F)(F)F)cc12 [Example 272]

0.027
0.022

Field: IC50. Fill in for each record below.
1. COCC(=O)N1CC2CC1CN2c1nc2nn(-c3c(C)cc(Br)cc3C)cc2c(=O)[nH]1 (racemic) [Example 220]
2. Cc1cc(C(C)C)ccc1-n1cc2c(=O)[nH]c(N3CCCC3)nc2n1 [Example 83]
3. C=C(C)c1ccc(-n2cc3c(=O)[nH]c(N4CCCC4)nc3n2)c(C)c1 [Example 81]
4. Cc1c2c(=O)[nH]c(N3CCCC3)nc2nn1-c1ccc(C(F)(F)F)cc1Cl [Example 170]

1: 0.023; 2: 0.0084; 3: 0.011; 4: 0.088

For every listed record, write down its IC50.
1. COCC1CN(c2nc3nn(-c4ccc(Br)cc4C)cc3c(=O)[nH]2)CCO1 (racemic) [Example 72]
2. Cc1cc(Br)ccc1-n1cc2c(=O)n(CCO)c(N3CCOCC3)nc2n1 [Example 163]

1. 0.052
2. 0.047

----------
TEST_SYSTEM: NLRP3 inflammasome (Homo sapiens (Human), UniProt Q96P20)
EXPERIMENTAL_DETAILS: Evaluation of NLRP3 inflammasome inhibitory activity (inhibition of IL-1β production in LPS/Nigericin-stimulated THP1-Null cells)
CONDITION_NOTES: IL-1β production in THP1-Null cells, PMA, LPS 1 μg/mL, Nigericin 7.5 μmol/L, AlphaLISA
QUANTITY_KIND: IC50 (nM)
Answers are plain numbers, in nM.

COMPOUND: Cc1cc(C(F)(F)F)cc(C)c1-n1cc2c(=O)[nH]c(N3CC4CCC(C3)O4)nc2n1 [Example 295]
IC50 (nM): 20
//
COMPOUND: Cc1cccc(C)c1-n1cc2c(=O)[nH]c(N3CCCC3)nc2n1 [Example 11]
IC50 (nM): 200
//
COMPOUND: CO[C@@H]1CCN(c2nc3nn(-c4c(C)cc(Br)cc4C)cc3c(=O)[nH]2)C1 [Example 316]
IC50 (nM): 6.4
//
COMPOUND: CO[C@@H]1CCN(c2nc3nn(-c4c(C)cc(C5CC5)cc4C)cc3c(=O)[nH]2)C1 [Example 317]
IC50 (nM): 5.2

Next up:
Please indicate IC50 recorded for Cc1ccc(C)c(-n2cc3c(=O)[nH]c(N4CCCC4)nc3n2)c1 [Example 46]
290

----------
What pIC50 was measured for each of the following?
TEST_SYSTEM: NLRP3 inflammasome (Homo sapiens (Human), UniProt Q96P20)
EXPERIMENTAL_DETAILS: Evaluation of NLRP3 inflammasome inhibitory activity (inhibition of IL-1β production in LPS/Nigericin-stimulated THP1-Null cells)
CONDITION_NOTES: IL-1β production in THP1-Null cells, PMA, LPS 1 μg/mL, Nigericin 7.5 μmol/L, AlphaLISA
Answers are plain numbers, as −log10 of the molar value.

Consider the following illustrative entries.
COMPOUND: Cc1cc(Br)ccc1-n1cc2c(=O)n(CC#N)c(N3CCOCC3)nc2n1
VALUE_MEASURED: 6.72

COMPOUND: Cc1cc(Br)cc(C)c1-n1cc2c(=O)[nH]c(N3CCCC3)nc2n1
VALUE_MEASURED: 8.38

COMPOUND: Cc1nn(C2CCCC2)c(C)c1-n1cc2c(=O)[nH]c(N3CCCC3)nc2n1
VALUE_MEASURED: 5.92

COMPOUND: Cc1cc(Br)cc(C)c1-n1cc2c(=O)[nH]c(N3CCOCC3O)nc2n1 (racemic)
VALUE_MEASURED: 8.54

COMPOUND: O=c1[nH]c(N2CCOCC2)nc2nn(-c3ccc(Br)cc3C(O)C3CC3)cc12 (racemic)
VALUE_MEASURED: 7.80

Answer for every listed entry: what is its pIC50? The entries follow.
1. O=c1[nH]c(N2CCOCC2)nc2nn(-c3ccc(OC(F)F)cc3C(F)(F)F)cc12
2. O=c1[nH]c(N2CCCC2)nc2nn(-c3c(F)cccc3F)cc12

1: 7.51; 2: 5.62

----------
TEST_SYSTEM: NLRP3 inflammasome (Homo sapiens (Human), UniProt Q96P20)
EXPERIMENTAL_DETAILS: Evaluation of NLRP3 inflammasome inhibitory activity (inhibition of IL-1β production in LPS/Nigericin-stimulated THP1-Null cells)
CONDITION_NOTES: IL-1β production in THP1-Null cells, PMA, LPS 1 μg/mL, Nigericin 7.5 μmol/L, AlphaLISA
QUANTITY_KIND: IC50 (nM)
One number for each entry, in nM.

ENTRY_SMILES: Cc1cc(C)c(-n2cc3c(=O)[nH]c(N4CCOCC4)nc3n2)c(C)c1
UNIT_TEXT: nM
IC50: 14

Count: 2. Required value per item: IC50.
1. Cc1cc(Br)cc(F)c1-n1cc2c(=O)[nH]c(N3CCOCC3)nc2n1
2. COc1ccc(-n2cc3c(=O)[nH]c(N4CCCC4)nc3n2)c(Br)c1

[14, 11]
